These measurements were taken from patent US20250296971A1.

Target: GIPR (CHO-K1-hGIPR cells) (Homo sapiens)
Construct: host or cells: CHO-K1
Sequence (P48546 22-466): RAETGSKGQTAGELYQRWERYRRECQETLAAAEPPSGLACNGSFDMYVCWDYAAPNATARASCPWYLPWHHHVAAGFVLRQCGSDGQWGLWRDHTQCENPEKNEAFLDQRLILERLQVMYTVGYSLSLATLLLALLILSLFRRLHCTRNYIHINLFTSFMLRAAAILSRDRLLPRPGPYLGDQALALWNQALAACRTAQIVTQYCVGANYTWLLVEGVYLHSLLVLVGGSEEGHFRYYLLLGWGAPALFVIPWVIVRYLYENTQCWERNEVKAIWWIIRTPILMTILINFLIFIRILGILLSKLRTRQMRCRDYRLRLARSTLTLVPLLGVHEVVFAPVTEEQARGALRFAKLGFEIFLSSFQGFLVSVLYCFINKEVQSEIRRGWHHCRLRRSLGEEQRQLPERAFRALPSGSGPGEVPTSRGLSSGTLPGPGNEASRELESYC
Assay: FACS binding assay
Conditions: competition with 20 nM GIP-057, 4° C., 1 hour, read-out: pIC50 Category (converted)
*1 amine or outer side, *2 acyl side, *3 side chain or, on linkers, in order; H or OH if unused. Where a SMILES comes first, the peptide text is derived from it. Bridges are numbered along the chain shown (N, C = ends). [ ]: non-standard residue; d: D form. The star is where a group is joined. X5 = NC(=O)[C@H](CCCCNC(=O)CN1CCN(CC(=O)O)CCN(CC(=O)O)CCN(CC(=O)O)CC1)NC(=O)CCC(=O)NCCCOCCOCCOCCCN*; 1Nal = N[C@@H](Cc1cccc2ccccc12)C(=O)O; mXylylene = c1cc(C[*:1])cc(C[*:2])c1; Aib = CC(C)(N)C(=O)O
PROPERTY: IC50

{"columns": ["COMPOUND", "PROPERTY", "VALUE_OBSERVED"],
 "data": [
  ["CC[C@H](C)[C@@H]1NC(=O)[C@H](CC(C)C)NC(=O)C(C)(C)NC(=O)[C@@H](NC(=O)[C@H](CC(C)C)NC(=O)[C@H](CCC(=O)O)NC(=O)[C@@H]2CCCN2C(=O)[C@H](Cc2cccc3ccccc23)NC(=O)[C@H](Cc2c[nH]c3ccccc23)NC(=O)[C@H](CC(=O)O)NC(C)=O)CSCc2cccc(c2)CSC[C@@H](C(=O)NCCCOCCOCCOCCCNC(=O)CCC(=O)N[C@@H](CCCCNC(=O)CN2CCN(CC(=O)O)CCN(CC(=O)O)CCN(CC(=O)O)CC2)C(N)=O)NC1=O [GIP-074] (Ac-DW[1Nal]PELC[Aib]LIC-X5; linker 7-11 via mXylylene)", "IC50", "< 10 nM"]
]}

Query string: Any idea what its IC50 is? The compound is CC[C@H](C)[C@@H]1NC(=O)[C@H](CC(C)C)NC(=O)[C@H]([C@@H](C)O)NC(=O)[C@@H](NC(=O)[C@H](CC(C)C)NC(=O)[C@H](CCC(=O)O)NC(=O)[C@@H]2CCCN2C(=O)[C@H](Cc2c[nH]c3ccccc23)NC(=O)[C@H](Cc2c[nH]c3ccccc23)NC(=O)[C@H](CC(=O)O)NC(=O)[C@H](Cc2ccc(O)cc2)NC(=O)[C@@H](N)CCSC)CSCc2cccc(c2)CSC[C@@H](C(N)=O)NC1=O [GIP-242] (H-MYDWWPELCTLIC-NH2; linker 9-13 via mXylylene)
Result string: 10 to 79.4 nM
